Value source: ChEMBL document CHEMBL1240400

# Tested on: Enterococcus faecalis
# protocol: Antibacterial activity against Enterococcus faecalis by broth dilution method
# Assay type: functional
measure: MIC50
Your answer should be a number followed by the unit of measure.

Solved entries (count: 2):
molecular_string	MIC50
CC(=O)NC[C@H]1CN(c2ccc(N3CCOCC3)c(F)c2)C(=O)O1	1 µg/mL
CN[C@H](CC(C)C)C(=O)N[C@H]1C(=O)N[C@@H](CC(N)=O)C(=O)N[C@H]2C(=O)N[C@H]3C(=O)N[C@H](C(=O)N[C@H](C(=O)O)c4cc(O)cc(O)c4-c4cc3ccc4O)[C@H](O)c3ccc(c(Cl)c3)Oc3cc2cc(c3O[C@@H]2O[C@H](CO)[C@@H](O)[C@H](O)[C@H]2O[C@H]2C[C@](C)(N)[C@H](O)[C@H](C)O2)Oc2ccc(cc2Cl)[C@H]1O	2 µg/mL

Would you kindly look at the next entry?
Using the record for COc1c(N2C[C@@H](C)C[C@H](N)C2)ccc2c(=O)c(C(=O)O)cn(C3CC3)c12.O=C(O)CC(O)C(=O)O , report its MIC50.
0.25 µg/mL
